Tested on: primary human T-cells
Assay: IL2 secretion measurements (24 h, CD3-stimulated T-cells, PBS counter screen)
Format: cell-based
Conditions: CD3 condition; normalised to DMSO (neutral) and 20 μM reference compound A1 = 100%
Method: As readouts for T-cell activation, 1L2 secretion after 24 hours and proliferation after 5 days was measured. Increases in IL2 secretion and proliferation upon compound treatment were assessed as the % of the maximum of reference compound A1. […] The immunoassay is done following the manufacturer's manual (Invitrogen, #A35603). […] Raw data is extracted and IL-2 concentrations are calculated with the Thermo Fisher online app (apps.thermofisher.com/apps/proquantum). […]
Assign Emax IL2 (% activation) to each entry below.
The reply should be a number in % activation, with the unit left off.

## Task Hello, please tell me recorded Emax IL2 (% activation) for this one: CC(C)(C)c1nnc(-c2ccc(CN3C(=O)[C@@H](N)CS(=O)(=O)c4ccc(-c5nnc(C(C)(C)C)o5)cc43)cc2)o1
## Result 40

## Task Hello, please tell me recorded Emax IL2 (% activation) for this one: N[C@H]1CS(=O)(=O)c2ccc(-c3nnc(C4(N)CCCCC4)o3)cc2N(Cc2ccc(-c3ccc(C(F)(F)F)cc3)cc2)C1=O
## Result 128

## Task Hello, please tell me recorded Emax IL2 (% activation) for this one: C[C@@](N)(c1nnc(-c2ccc3c(c2)N(Cc2ccc(-n4ccc(C(F)(F)F)n4)cc2)C(=O)[C@@H](N)CS3(=O)=O)o1)C(F)(F)F
## Result 106

----------
Molecular target: DGKα (hDGKalpha(1-735)-N-His) (Homo sapiens, UniProt P23743)
Construct: hDGKalpha(1-735)-N-His; His (N); made in house; host or cells: Sf21 insect cells (baculovirus)
Sequence (P23743 whole entry): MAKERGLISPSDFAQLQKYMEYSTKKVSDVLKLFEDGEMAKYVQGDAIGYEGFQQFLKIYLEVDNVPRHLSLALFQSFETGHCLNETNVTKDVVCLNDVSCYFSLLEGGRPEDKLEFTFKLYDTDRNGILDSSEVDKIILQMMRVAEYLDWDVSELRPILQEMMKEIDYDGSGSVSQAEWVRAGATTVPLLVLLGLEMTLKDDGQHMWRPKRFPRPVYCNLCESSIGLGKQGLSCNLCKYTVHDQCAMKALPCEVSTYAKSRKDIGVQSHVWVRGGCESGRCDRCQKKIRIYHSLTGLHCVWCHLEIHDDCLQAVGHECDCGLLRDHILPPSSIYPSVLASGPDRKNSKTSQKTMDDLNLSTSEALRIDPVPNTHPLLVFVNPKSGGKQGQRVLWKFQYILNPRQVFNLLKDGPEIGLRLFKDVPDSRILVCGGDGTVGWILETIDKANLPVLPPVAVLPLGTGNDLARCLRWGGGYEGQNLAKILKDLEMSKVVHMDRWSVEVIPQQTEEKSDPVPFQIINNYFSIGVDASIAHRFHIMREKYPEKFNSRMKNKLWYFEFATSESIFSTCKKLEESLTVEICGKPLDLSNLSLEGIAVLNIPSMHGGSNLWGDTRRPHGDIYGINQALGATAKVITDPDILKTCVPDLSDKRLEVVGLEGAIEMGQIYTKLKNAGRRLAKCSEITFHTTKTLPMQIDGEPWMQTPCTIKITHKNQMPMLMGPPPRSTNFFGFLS
Test: In vitro DGK inhibition assay, DGKalpha ADP Glo (in house)
Format: biochemical
Settings: 4 nM DGKα, 25 μM ATP, 125 uM DLG in liposomes, 1 hour reaction
Method: DGKα and ζ kinases use ATP to phosphorylate the substrate 1,2-dilauroyl-sn-glycerol (DLG, incorporated in the liposomes). ATP is converted to ADP as a result of this enzymatic reaction. […] A concentrated liposome solution was prepared in assay buffer without DTT and BSA: 2 mM of DLG in 21 mM of total liposome (2 mM DLG/8 mM PS/11 mM PC). […] After 1 hour reaction, the amount of ADP formed was detected with the ADP-Glo kinase assay (Promega) according to the manufacturer instructions. […]
Assign log10(IC50) to each entry below.
Record value = log10 of IC50 given in µM.

## Task Hello, please tell me recorded log10(IC50) for this one: CC(C)(c1nnc(-c2ccc3c(c2)N(Cc2ccc(-c4noc(C(F)(F)F)n4)cc2)C(=O)[C@@H](N)CS3(=O)=O)o1)C(F)(F)F
## Result 0.48

## Task Hello, please tell me recorded log10(IC50) for this one: COC(F)(c1nnc(-c2ccc3c(c2)N(Cc2ccc(-c4ncn(C5CC5)n4)cc2)C(=O)[C@@H](N)CS3(=O)=O)o1)C(F)(F)F (stereo partly drawn)
## Result 1.17

## Task Hello, please tell me recorded log10(IC50) for this one: CC(C)(C#N)c1nnc(-c2ccc3c(c2)N(Cc2ccc(-n4cc(C(F)(F)F)cn4)cc2)C(=O)[C@@H](N)CS3(=O)=O)o1
## Result 0.05

## Task Hello, please tell me recorded log10(IC50) for this one: COC(=O)N1CC(c2nnc(-c3ccc4c(c3)N(Cc3ccc(-c5noc(C(C)(C)C)n5)cc3)C(=O)[C@@H](N)CS4(=O)=O)o2)CC(F)(F)C1 (stereo partly drawn)
## Result 0.30

## Task Hello, please tell me recorded log10(IC50) for this one: CC(C)(C#N)c1nnc(-c2ccc3c(c2)N(Cc2ccc(-c4ccc(OC(F)(F)F)cc4)nc2)C(=O)[C@@H](N)CS3(=O)=O)o1
## Result 0.54
